Cited source for all entries: patent US20030175288A1

target: T1, HLA-A0201 molecule on T2 cells (human); test: T2 cells with 10 µM peptide, HLA-A2 stained with mAb BB7.2, flow cytometry (relative MFI)
T1 construct: MHC class I molecule without peptide on T2 cells; detected with anti-HLA-A2 mAb BB7.2; also called HLA-A2 molecule
Is MFI at least 700? Then 1 (yes). If not, 0 (no).

>>> group("ILPRKHHRI (synthetic peptide; also called gene 1 (UBE2V) 208-216) [P5]")
"0 (no)"
>>> group("QILKGLLFL (synthetic peptide; also called gene 5 (ppMAPkkk) 290-298) [P16]")
"1 (yes)"
>>> group("TLLRKERGV (synthetic peptide; also called gene 3 (WHSC2) 267-275) [P13]")
"0 (no)"
>>> group("DLLSHAFFA (synthetic peptide) [P18]")
"0 (no)"
>>> group("LIADFLSGL (synthetic peptide; also called gene 1 (UBE2V) 85-93) [P3]")
"1 (yes)"
>>> group("ALVEFEDVL (synthetic peptide) [P6]")
"1 (yes)"
>>> group("ILGELREKV (synthetic peptide; also called gene 3 (WHSC2) 141-149) [P11]")
"1 (yes)"
>>> group("MLPLECQYL (synthetic peptide; also called gene 3 (WHSC2) 157-165) [P12]")
"1 (yes)"
>>> group("LLLLARWEDT (synthetic peptide; also called gene 1 (UBE2V) 64-73) [P2]")
"0 (no)"
>>> group("NVLHFFNAPL (synthetic peptide; also called gene 2 (HNRPL) 501-510) [P9]")
"1 (yes)"
>>> group("RIIYDRKFL (synthetic peptide; also called EIF4EBP1 51-59; gene 4 51-59) [P14]")
"0 (no)"
>>> group("RLQEWCSVI (synthetic peptide; positions counted on the gene 1 product; also called UBE2V 43-51; gene 1 43-51) [P1]")
"0 (no)"
>>> group("QQLCVYWTV (synthetic peptide) [P19]")
"1 (yes)"
>>> group("LLQDWHVIL (synthetic peptide) [P4]")
"1 (yes)"
>>> group("IIYDRKFLM (synthetic peptide; also called gene 4 (EIF4EBP1) 52-60) [P15]")
"1 (yes)"
>>> group("GLLFLHTRT (synthetic peptide; also called gene 5 (ppMAPkkk) 294-302) [P17]")
"0 (no)"
>>> group("CLYGNVEKV (synthetic peptide; also called gene 2 (HNRPL) 404-412) [P7]")
"1 (yes)"
